Biological target: Inhibitor of nuclear factor kappa-B kinase subunit beta (Homo sapiens)
Sequence (whole entry): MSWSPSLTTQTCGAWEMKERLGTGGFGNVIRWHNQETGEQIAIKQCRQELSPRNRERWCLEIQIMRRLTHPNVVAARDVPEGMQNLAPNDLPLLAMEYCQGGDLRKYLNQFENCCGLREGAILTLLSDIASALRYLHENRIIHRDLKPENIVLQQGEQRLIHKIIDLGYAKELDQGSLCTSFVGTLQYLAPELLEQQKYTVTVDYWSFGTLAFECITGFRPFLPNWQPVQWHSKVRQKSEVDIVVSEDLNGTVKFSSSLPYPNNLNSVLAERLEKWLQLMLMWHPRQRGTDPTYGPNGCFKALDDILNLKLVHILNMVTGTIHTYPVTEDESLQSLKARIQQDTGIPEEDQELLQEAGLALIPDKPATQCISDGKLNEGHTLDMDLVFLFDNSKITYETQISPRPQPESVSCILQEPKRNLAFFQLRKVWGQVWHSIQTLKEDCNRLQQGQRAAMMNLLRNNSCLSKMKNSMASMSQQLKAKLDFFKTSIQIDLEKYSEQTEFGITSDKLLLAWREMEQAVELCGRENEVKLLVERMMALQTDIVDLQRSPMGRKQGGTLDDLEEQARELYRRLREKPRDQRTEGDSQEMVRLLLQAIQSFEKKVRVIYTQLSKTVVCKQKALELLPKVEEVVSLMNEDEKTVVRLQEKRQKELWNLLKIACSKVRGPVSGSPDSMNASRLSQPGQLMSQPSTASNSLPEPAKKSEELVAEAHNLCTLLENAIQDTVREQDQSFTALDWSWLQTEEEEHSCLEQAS
Assay: Percentage IKK-beta activity remaining in the presence of 0.1uM inhibitor
READOUT_TYPE: Activity (%)

INSERT INTO assay_data (molecule_smiles, readout_type, result_value) VALUES
  ('Cc1n[nH]c2ccc(-c3cncc(OC[C@@H](N)Cc4c[nH]c5ccccc45)c3)cc12', 'Activity', 89),
  ('CC(C)[C@H](CO)Nc1nc(Nc2cccc(Cl)c2)c2ncn(C(C)C)c2n1', 'Activity', 89),
  ('Cn1cc(C2=C(c3cn(CCCSC(=N)N)c4ccccc34)C(=O)NC2=O)c2ccccc21', 'Activity', 91);
